Target: endogenous kinases and other proteins enriched by Kinobeads from mixed cancer cell lysates (Homo sapiens, UniProt Q96L34)
Construct: endogenous in cells
Sequence (Q96L34 1-752): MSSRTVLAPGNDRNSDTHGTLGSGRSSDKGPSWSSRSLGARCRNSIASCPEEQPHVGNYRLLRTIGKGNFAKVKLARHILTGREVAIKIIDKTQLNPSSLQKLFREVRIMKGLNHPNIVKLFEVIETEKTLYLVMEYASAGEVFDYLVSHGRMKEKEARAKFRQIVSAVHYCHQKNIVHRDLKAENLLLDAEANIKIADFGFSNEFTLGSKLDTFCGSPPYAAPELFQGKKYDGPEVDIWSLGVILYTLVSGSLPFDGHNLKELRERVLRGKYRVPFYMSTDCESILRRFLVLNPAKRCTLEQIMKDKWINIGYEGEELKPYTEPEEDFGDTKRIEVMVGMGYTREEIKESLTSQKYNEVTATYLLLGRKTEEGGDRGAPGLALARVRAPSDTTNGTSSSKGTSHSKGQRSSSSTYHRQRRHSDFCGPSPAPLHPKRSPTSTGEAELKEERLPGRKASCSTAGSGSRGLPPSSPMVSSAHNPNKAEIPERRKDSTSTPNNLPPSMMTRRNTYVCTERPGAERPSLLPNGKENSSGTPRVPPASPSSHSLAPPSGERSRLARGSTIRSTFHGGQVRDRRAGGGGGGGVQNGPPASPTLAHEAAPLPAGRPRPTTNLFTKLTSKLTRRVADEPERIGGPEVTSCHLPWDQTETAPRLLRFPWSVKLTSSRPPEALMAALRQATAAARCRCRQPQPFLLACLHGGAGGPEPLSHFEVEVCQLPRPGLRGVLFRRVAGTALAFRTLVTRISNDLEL
Test: Kinobeads pulldown, full dose-response (eight doses)
Conditions: target MARK4; read-out: apparent Kd
metric: pKd
In textbook form, pKd equals minus log to base ten of the concentration in mol/L.

Ask | Return reported pKd; argument: Cn1cc(-c2nc(N[C@@H]3CCCC[C@@H]3N)c(F)c3c2C(=O)NC3)cn1 [TAK659]
Reply | 5.98

====

Target: ABL1 (Homo sapiens, UniProt P00519)
Sequence (P00519 28-1130 limits assumed): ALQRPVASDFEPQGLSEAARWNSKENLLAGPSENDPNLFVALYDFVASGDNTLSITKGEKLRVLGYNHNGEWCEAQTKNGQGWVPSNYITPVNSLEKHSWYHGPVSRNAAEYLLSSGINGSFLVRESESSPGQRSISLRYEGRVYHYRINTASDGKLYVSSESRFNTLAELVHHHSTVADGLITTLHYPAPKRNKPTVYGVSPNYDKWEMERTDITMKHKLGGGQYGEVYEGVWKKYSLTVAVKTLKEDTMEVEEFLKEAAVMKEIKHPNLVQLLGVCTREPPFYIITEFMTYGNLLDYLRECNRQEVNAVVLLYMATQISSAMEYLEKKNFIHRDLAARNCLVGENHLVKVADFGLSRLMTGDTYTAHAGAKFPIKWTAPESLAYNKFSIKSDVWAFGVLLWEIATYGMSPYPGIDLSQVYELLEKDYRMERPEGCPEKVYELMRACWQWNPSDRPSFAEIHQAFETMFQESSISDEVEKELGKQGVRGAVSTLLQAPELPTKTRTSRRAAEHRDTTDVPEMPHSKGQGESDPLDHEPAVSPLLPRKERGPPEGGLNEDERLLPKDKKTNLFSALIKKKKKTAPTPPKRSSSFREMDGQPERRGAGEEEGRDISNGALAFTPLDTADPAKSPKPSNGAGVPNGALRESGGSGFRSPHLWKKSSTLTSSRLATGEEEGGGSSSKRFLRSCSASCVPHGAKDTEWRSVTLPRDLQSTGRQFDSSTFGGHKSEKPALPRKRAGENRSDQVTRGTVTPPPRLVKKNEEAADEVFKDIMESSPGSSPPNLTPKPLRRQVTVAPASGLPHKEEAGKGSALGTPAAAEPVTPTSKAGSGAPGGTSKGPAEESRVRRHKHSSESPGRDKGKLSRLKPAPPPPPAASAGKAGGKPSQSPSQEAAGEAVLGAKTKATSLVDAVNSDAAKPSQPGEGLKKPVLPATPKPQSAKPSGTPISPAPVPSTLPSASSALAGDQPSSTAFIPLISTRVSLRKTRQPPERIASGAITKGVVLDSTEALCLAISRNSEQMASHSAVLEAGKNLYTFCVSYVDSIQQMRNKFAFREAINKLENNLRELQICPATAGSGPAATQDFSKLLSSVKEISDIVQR
Test: Kinobeads two-dose competition binding: ABL1
Details: sheet CATDS matrix 2; Gene Name ABL1
The entries below come with measured CATDS values attached.
When you answer, write just the number.

• Cc1ccc(NC(=O)Nc2cc(C(C)(C)C)nn2-c2ccccc2)cc1 [GSK1014915A] = 0

Ask | Fill in: CATDS of CSc1nn2c(=O)cc(N3CCOCC3)nc2n1Cc1cccc(Cl)c1Cl [GSK2347225A] is ___
Reply | 0

Ask | Consider the compound shown here: COc1cc2c(cc1OC)C(=C(Nc1ccccc1)c1cccc(CN)c1)C(=O)N2 [BIBF0846CL] What is its recorded CATDS?
Reply | 0

Ask | For the compound shown here, CCCN1CCC(c2ccc(Nc3nc(Nc4cc(F)ccc4C(N)=O)c4cc[nH]c4n3)c(OC)c2)CC1 [GSK1326255A] , give the reported CATDS.
Reply | 0

Ask | // CATDS lookup, key: O=c1cc(N2CCOCC2)nc2n(Cc3cccc4ccccc34)ccn12 [GSK2333389A]
Reply | 0

Ask | Data request, read-out CATDS, for O=S(=O)(c1cccc2cnccc12)N1CCCNCC1 [Fasudil, reference compound]
Reply | 0

Ask | I would be grateful if you could share the reported CATDS for O=c1cc(N2CCOCC2)nc2n(Cc3cccc(Cl)c3Cl)ccn12 [GSK2286295A] .
Reply | 0

Ask | Suppose we examine the compound CNS(=O)(=O)c1ccc(N(C)C)c(Nc2ncnc3cc(OC)c(OC)cc23)c1 ; what CATDS value has been reported?
Reply | 0

Ask | Look at this compound and give its reported CATDS. c1ccc(Cc2nc3ccc(Nc4ncnc5ccccc45)cc3[nH]2)cc1
Reply | 0

====

Molecular target: endogenous kinases and other proteins enriched by Kinobeads from mixed cancer cell lysates (Homo sapiens, UniProt P27448)
Construct: endogenous in cells
Sequence (P27448 whole entry): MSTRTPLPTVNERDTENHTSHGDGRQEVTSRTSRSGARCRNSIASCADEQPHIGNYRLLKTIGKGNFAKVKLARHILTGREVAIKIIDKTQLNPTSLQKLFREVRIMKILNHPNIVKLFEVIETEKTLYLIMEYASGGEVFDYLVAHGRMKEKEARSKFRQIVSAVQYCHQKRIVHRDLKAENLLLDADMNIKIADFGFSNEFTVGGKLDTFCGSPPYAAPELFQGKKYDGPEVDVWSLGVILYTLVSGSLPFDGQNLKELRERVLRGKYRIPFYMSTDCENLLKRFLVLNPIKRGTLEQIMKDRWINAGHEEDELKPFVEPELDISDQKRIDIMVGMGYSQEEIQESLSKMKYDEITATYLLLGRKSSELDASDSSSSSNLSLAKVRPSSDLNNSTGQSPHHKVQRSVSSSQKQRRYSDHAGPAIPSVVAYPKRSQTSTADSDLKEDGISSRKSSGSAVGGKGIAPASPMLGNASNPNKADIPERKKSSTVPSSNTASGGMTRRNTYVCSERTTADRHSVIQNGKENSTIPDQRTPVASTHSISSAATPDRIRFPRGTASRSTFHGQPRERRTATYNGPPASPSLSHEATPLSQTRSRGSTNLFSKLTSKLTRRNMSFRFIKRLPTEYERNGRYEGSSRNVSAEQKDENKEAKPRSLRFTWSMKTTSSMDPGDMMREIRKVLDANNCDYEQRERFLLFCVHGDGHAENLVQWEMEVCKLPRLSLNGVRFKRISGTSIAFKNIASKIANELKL
Assay: Kinobeads pulldown, full dose-response (eight doses)
Conditions: target MARK3; read-out: apparent Kd
metric: pKd
Answer as the number alone; pKd is minus log10 of concentration in mol/L.

Ask | So what's the measured pKd for this one? Cn1cc(-c2nc(N[C@@H]3CCCC[C@@H]3N)c(F)c3c2C(=O)NC3)cn1
Reply | 6.17

====

Molecular target: endogenous kinases and other proteins enriched by Kinobeads from mixed cancer cell lysates (Homo sapiens)
Construct: to maximize the representation of endogenous proteins; endogenous in cells
Assay: Kinobeads pulldown, full dose-response (eight doses);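 further: competition with Kinobeads ε after inhibitor preincubation in lysate (5 mg/ml protein) for 45 min at 4 °C, DMSO control, doses 0.3–1,000 nM, label-free LC–MS/MS quantification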
Conditions: target AAK1; read-out: apparent Kd
metric: Kd (nM)
Output spec: scalar in nM, unitless text.

Ask | Reported Kd for Cn1cc(-c2nc(N[C@@H]3CCCC[C@@H]3N)c(F)c3c2C(=O)NC3)cn1 [TAK659] : what is it?
Reply | 720

====

Target: GSK3A (Homo sapiens)
Construct: endogenous in cells
Sequence (P49840 whole entry): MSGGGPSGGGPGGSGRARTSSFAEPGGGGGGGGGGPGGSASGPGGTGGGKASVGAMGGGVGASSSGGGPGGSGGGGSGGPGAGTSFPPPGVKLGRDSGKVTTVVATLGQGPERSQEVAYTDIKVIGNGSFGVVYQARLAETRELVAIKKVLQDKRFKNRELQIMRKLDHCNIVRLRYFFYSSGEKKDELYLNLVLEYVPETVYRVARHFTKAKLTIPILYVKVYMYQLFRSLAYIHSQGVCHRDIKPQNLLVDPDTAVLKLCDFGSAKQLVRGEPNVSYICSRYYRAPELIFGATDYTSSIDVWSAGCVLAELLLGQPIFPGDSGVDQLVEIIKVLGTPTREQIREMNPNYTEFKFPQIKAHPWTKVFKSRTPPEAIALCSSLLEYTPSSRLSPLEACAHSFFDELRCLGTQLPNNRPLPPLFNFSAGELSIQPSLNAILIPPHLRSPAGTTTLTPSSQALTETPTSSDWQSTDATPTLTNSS
Test: Kinobeads full dose-response competition binding: GSK3A
Conditions: Gene Name GSK3A; EC50 with Correction, doses in nM; read-out: apparent Kd
Catalogue of Kd readings, one per entry.
Give the value in nM but do not write nM after it.

• CCn1c(-c2nonc2N)nc2c(C#CC(C)(C)O)nc(OCCN)cc21 [GSK902056A] = 164

Next compound, please.
Ask | // query Kd value for entry CCn1c(-c2nonc2N)nc2c(C#CC(C)(C)O)nc(OCCNC)cc21 [GSK949675A]
Reply | 104

====

Molecular target: GAK (Homo sapiens, UniProt O14976)
Construct: endogenous in cells
Sequence (O14976 1-1311): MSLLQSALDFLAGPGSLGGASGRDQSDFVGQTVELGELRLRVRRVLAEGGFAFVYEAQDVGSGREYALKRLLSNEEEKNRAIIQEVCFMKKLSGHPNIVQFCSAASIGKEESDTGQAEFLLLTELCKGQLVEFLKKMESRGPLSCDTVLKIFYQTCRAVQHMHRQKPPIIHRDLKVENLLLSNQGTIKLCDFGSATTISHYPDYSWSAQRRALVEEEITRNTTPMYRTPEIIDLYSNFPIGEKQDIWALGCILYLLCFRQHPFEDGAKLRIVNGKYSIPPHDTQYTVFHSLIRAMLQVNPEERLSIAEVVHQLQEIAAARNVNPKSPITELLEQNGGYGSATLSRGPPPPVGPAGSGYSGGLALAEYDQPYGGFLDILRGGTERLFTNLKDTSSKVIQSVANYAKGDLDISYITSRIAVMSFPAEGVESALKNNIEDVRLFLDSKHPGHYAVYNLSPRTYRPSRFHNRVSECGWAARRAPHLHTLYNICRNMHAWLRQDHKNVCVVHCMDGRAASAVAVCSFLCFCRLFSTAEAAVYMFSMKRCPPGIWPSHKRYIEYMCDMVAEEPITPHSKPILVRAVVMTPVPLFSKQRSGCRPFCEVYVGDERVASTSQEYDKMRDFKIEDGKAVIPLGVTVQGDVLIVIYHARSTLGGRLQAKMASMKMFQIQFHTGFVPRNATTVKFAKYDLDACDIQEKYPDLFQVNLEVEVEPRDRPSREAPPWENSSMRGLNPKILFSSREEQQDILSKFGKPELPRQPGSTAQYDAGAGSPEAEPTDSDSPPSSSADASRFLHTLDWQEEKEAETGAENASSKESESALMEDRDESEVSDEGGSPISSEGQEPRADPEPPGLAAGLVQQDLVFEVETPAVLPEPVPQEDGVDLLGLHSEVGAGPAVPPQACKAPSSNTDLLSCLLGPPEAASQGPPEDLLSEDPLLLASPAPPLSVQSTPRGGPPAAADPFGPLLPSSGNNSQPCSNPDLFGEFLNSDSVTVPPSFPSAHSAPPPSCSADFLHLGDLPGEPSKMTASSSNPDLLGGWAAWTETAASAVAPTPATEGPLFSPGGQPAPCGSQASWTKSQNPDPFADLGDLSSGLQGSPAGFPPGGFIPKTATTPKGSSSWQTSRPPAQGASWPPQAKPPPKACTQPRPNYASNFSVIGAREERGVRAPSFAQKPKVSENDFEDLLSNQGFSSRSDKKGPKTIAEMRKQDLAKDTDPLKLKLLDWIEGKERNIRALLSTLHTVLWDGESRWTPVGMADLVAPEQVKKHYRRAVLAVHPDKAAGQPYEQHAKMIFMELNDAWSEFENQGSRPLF
Assay: Kinobeads two-dose competition binding: GAK
Details: target GAK
Reported CATDS by item:

* Nc1ncnc2[nH]c(-c3ccccc3)nc12 | 0.09213
* N#CC1(c2ccc(NC(=O)c3cccnc3NCc3ccncc3)cc2)CCCC1 | 0
* CCN1CCN(Cc2ccc(Nc3ncc(F)c(-c4cc(F)c5nc(C)n(C(C)C)c5c4)n3)nc2)CC1 | 0
* CN(C)C/C=C/C(=O)Nc1cc2c(Nc3ccc(F)c(Cl)c3)ncnc2cc1O[C@H]1CCOC1 | 0

Consider now this further molecule.
Ask | Find CATDS (GAK (Homo sapiens, UniProt O14976)) for the entry CCc1cc2c(cc1N1CCC(N3CCOCC3)CC1)C(C)(C)c1[nH]c3cc(C#N)ccc3c1C2=O
Reply | 0.6004
